# credit: ChEMBL document CHEMBL4229518

Give measured MIC for each item. Keep answers brief.
System: Streptococcus pneumoniae
procedure-text: Antimicrobial activity against Streptococcus pneumoniae R6 after 18 to 20 hrs by microbroth dilution method
Type: functional
Supply the numeric figure in µg/mL, leaving out any unit text.

-- ask May I ask what MIC has been recorded for CC1=C(C(=O)O)N2C(=O)[C@@H](NC(=O)[C@H](NC(=O)C3=C(O)C(CC(C)C)NC3=O)c3ccccc3)[C@H]2SC1 (some centres undefined) ?
-- reply 100

-- ask May I ask what MIC has been recorded for CC(=O)OCC1=C(C(=O)O)N2C(=O)[C@@H](NC(=O)CCNC(=O)C3=C(O)C(CC(C)C)NC3=O)[C@H]2SC1 (some centres undefined) ?
-- reply 12.5

-- ask May I ask what MIC has been recorded for CC1=C(C(=O)O)N2C(=O)[C@@H](NC(=O)[C@H](N)c3ccccc3)[C@H]2SC1 [CEPHALEXIN ANHYDROUS] ?
-- reply 6.25

---

Test system: Proteus mirabilis
procedure-text: Antimicrobial activity against Proteus mirabilis ATCC 25933 after 18 to 20 hrs by microbroth dilution method
Assay type: functional
observed-property: MIC (mg/L)
Supply the numeric figure in mg/L, leaving out any unit text.

-- ask May I ask what MIC has been recorded for CC(C)CC1NC(=O)C(C(=O)NCCC(=O)N[C@@H](C(=O)N[C@@H]2C(=O)N3C(C(=O)O)=C(Cl)CS[C@H]23)c2ccccc2)=C1O (some centres undefined) ?
-- reply 1.56

-- ask May I ask what MIC has been recorded for N[C@@H](C(=O)N[C@@H]1C(=O)N2C(C(=O)O)=C(Cl)CS[C@H]12)c1ccccc1 [CEFACLOR ANHYDROUS] ?
-- reply 3.13

-- ask May I ask what MIC has been recorded for CC(C)CC1NC(=O)C(C(=O)NCCCCCC(=O)N[C@@H](C(=O)N[C@@H]2C(=O)N3[C@@H]2SC(C)(C)[C@@H]3C(=O)O)c2ccccc2)=C1O (some centres undefined) ?
-- reply 6.25

---

Test system: Klebsiella pneumoniae
procedure-text: Antimicrobial activity against Klebsiella pneumoniae ATCC 33495 after 18 to 20 hrs by microbroth dilution method
Type: functional
observed-property: MIC

-- ask For Klebsiella pneumoniae, provide MIC of CO[C@@]1(NC(=O)C2SC(=C(C(N)=O)C(=O)O)S2)C(=O)N2C(C(=O)O)=C(CSc3nnnn3C)CS[C@@H]21 (stereo not given in full) please.
-- reply < 0.2 µg/mL

-- ask For Klebsiella pneumoniae, provide MIC of CC(=O)OCC1=C(C(=O)O)N2C(=O)[C@@H](NC(=O)CCNC(=O)C3=C(O)C(CC(C)C)NC3=O)[C@H]2SC1 (stereo not given in full) please.
-- reply > 200 µg/mL

-- ask For Klebsiella pneumoniae, provide MIC of C=CC1=C(C(=O)O)N2C(=O)[C@@H](NC(=O)CCNC(=O)C3=C(O)C(CC(C)C)NC3=O)[C@H]2SC1 (stereo not given in full) please.
-- reply > 200 µg/mL

-- ask For Klebsiella pneumoniae, provide MIC of CC1=C(C(=O)O)N2C(=O)[C@@H](NC(=O)[C@H](NC(=O)C3=C(O)C(CC(C)C)NC3=O)c3ccccc3)[C@H]2SC1 (stereo not given in full) please.
-- reply > 200 µg/mL

-- ask For Klebsiella pneumoniae, provide MIC of CC(C)CC1NC(=O)C(C(=O)NCCCC(=O)N[C@@H](C(=O)N[C@@H]2C(=O)N3[C@@H]2SC(C)(C)[C@@H]3C(=O)O)c2ccccc2)=C1O (stereo not given in full) please.
-- reply > 200 µg/mL

---

Tested on: Streptococcus pneumoniae
procedure-text: Antimicrobial activity against Streptococcus pneumoniae R6 after 18 to 20 hrs by microbroth dilution method
Assay type: functional
Give measured MIC for each item. Keep answers brief.

-- ask May I ask what MIC has been recorded for CC1(C)S[C@@H]2[C@H](NC(=O)[C@H](N)c3ccccc3)C(=O)N2[C@H]1C(=O)O ?
-- reply < 0.2 µg/mL

-- ask May I ask what MIC has been recorded for CC(C)CC1NC(=O)C(C(=O)NCCCCCC(=O)N[C@@H](C(=O)N[C@@H]2C(=O)N3[C@@H]2SC(C)(C)[C@@H]3C(=O)O)c2ccccc2)=C1O (stereo partly drawn) ?
-- reply < 0.2 µg/mL

-- ask May I ask what MIC has been recorded for CC(C)CC1NC(=O)C(C(=O)NCCCC(=O)N[C@@H](C(=O)N[C@@H]2C(=O)N3[C@@H]2SC(C)(C)[C@@H]3C(=O)O)c2ccccc2)=C1O (stereo partly drawn) ?
-- reply < 0.2 µg/mL

---

System: Proteus mirabilis
procedure-text: Antimicrobial activity against Proteus mirabilis ATCC 25933 after 18 to 20 hrs by microbroth dilution method
Type: functional
Give measured MIC for each item. Keep answers brief.
Supply the numeric figure in µg/mL, leaving out any unit text.

-- ask May I ask what MIC has been recorded for CC(C)CC1NC(=O)C(C(=O)NCCC(=O)N[C@@H](C(=O)N[C@@H]2C(=O)N3[C@@H]2SC(C)(C)[C@@H]3C(=O)O)c2ccccc2)=C1O (stereo partly drawn) ?
-- reply 6.25

-- ask May I ask what MIC has been recorded for CC(C)CC1NC(=O)C(C(=O)NCCCC(=O)N[C@@H](C(=O)N[C@@H]2C(=O)N3[C@@H]2SC(C)(C)[C@@H]3C(=O)O)c2ccccc2)=C1O (stereo partly drawn) ?
-- reply 1.56
